These data points were gathered from patent US20220324835A1.

# Test system: T-cell
# experiment: CD25 cell surface staining on T-cells co-stimulated with anti-CD3 and anti-CD28 antibody (Biological Example 2)
# Format: cell-based, human
# study-conditions: Homo sapiens, T-cell, fold change over baseline; 1 μM Cbl-b inhibitor; primary human total T-cells; read-out: CD25 staining Anti-CD3/Anti-CD28 stimulation
measurement-type: fold induction at 1 µM

Completed entries (count: 2):
[[record]]
molecule = "Cn1cnnc1CC(C)(C)c1cccc(N2Cc3c(cccc3C(F)(F)F)C2=O)c1"
measurement_type = "fold induction at 1 µM"
val = "1.01 to 1.3"

[[record]]
molecule = "C[C@H](Sc1nncn1C)c1ccnc(NC(=O)c2cc(C3CC3)cc(C(F)(F)F)n2)c1"
measurement_type = "fold induction at 1 µM"
val = "< 1"


Value lookup for fold induction at 1 µM; key = C[C@H](Cc1nncn1C)c1cccc(NC(=O)c2ccnc(C(F)(F)F)n2)c1
> 1.76

Value lookup for fold induction at 1 µM; key = Cc1ccc(C(=O)Nc2cccc([C@H](C)Sc3nncn3C)c2)nc1C1CC1
1.01 to 1.3
